Molecular target: full-length human CSNK1A1 (Homo sapiens)
Construct: N-terminal Glutathion-S-Transferase (GST) and full-length human CSNK1A1; purchased Life Technologies PV4174; host or cells: baculovirus infected insect cells
Sequence (P48729 whole entry): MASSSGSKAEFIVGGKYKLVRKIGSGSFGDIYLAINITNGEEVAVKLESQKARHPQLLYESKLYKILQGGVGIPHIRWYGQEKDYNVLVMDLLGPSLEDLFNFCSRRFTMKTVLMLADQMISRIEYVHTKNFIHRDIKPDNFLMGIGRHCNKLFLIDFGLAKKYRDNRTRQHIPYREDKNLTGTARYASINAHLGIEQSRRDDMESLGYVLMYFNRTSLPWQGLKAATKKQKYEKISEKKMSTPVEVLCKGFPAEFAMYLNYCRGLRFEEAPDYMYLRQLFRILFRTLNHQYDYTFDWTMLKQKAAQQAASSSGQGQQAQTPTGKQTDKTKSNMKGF
Test: CSNK1A1 Assay 2 (ADP-Glo, 1 μM ATP, substrate biotin-Ahx-KRRRAL-pS-VASLPGL)
Type: biochemical
Details: Table 3, read-out: CSNK1A1 Assay 2 IC50 [mol/l] (median)
Description: CSNK1A1-inhibitory activity of compounds of the present invention in presence of 1 μM adenosine-tri-phosphate (ATP) was quantified employing the CSNK1A1 assay as described in the following paragraphs. In essence, the enzyme activity is measured by quantification of the adenosine-di-phosphate (ADP), which is generated as a co-product of the enzyme reaction, via the “ADP-Glo™ Kinase Assay” kit from the company Promega. […]
Define the label as Fulfilled when IC50 is strictly less than 3 nM and as Not fulfilled in all remaining cases.

{"compound": "COc1cc(F)nc2c(-c3ccccn3)c(-c3ccnc(NC(=O)C(CC(F)F)c4ccc(F)cc4)c3)[nH]c12 (single isomer, unassigned; (-)) [Example 41]", "category": "Not fulfilled"}
{"compound": "O=C(Nc1cc(-c2[nH]c3c(CC4CC4)cc(F)nc3c2-c2ccccn2)ccn1)C(CC(F)F)c1ccc(F)cc1 (racemic) [Example 46]", "category": "Not fulfilled"}
{"compound": "Cc1ccc2[nH]c(-c3ccnc(NC(=O)C(CC(F)F)c4ccc(F)cc4)c3)c(-c3ccccn3)c2n1 (single isomer, unassigned) [Example 5]", "category": "Not fulfilled"}
{"compound": "Cc1cnc2c(-c3ccccn3)c(-c3ccnc(NC(=O)C(CC(F)F)c4ccc(F)cc4)c3)[nH]c2n1 (single isomer, unassigned; (+)) [Example 86]", "category": "Fulfilled"}
{"compound": "O=C(Nc1cc(-c2[nH]c3c(Cl)ccnc3c2-c2ccccn2)ccn1)C(CC(F)F)c1ccc(F)cc1 (racemic) [Example 49]", "category": "Not fulfilled"}
{"compound": "COc1cnc2c(-c3ccccn3)c(-c3ccnc(NC(=O)C(CC(F)F)c4ccc(F)cc4)c3)[nH]c2c1 (single isomer, unassigned) [Example 83]", "category": "Not fulfilled"}
{"compound": "Cc1cc2[nH]c(-c3ccnc(NC(=O)C(CC(F)F)c4ccc(F)cc4)c3)c(-c3ccccn3)c2nc1F (racemic) [Example 33]", "category": "Not fulfilled"}
{"compound": "O=C(Nc1cc(-c2[nH]c3ccc(F)nc3c2-c2ccccn2)ccn1)[C@@H](CC(F)F)c1ccc(F)cc1 (single isomer, unassigned) [Example 2]", "category": "Fulfilled"}
{"compound": "O=C(Nc1cc(-c2[nH]c3cccnc3c2-c2cccc(F)n2)ccn1)C(CC(F)F)c1ccc(F)cc1 (single isomer, unassigned; (+)) [Example 27]", "category": "Fulfilled"}
{"compound": "O=C(Nc1cc(-c2[nH]c3c(OC4CC4)cc(F)nc3c2-c2ccccn2)ccn1)C(CC(F)F)c1ccc(F)cc1 (single isomer, unassigned) [Example 43]", "category": "Not fulfilled"}
{"compound": "COc1cnc2c(-c3ccccn3)c(-c3ccnc(NC(=O)C(CC(F)F)c4ccc(F)cc4)c3)[nH]c2n1 (single isomer, unassigned) [Example 103]", "category": "Fulfilled"}
{"compound": "O=C(Nc1cc(-c2[nH]c3nccnc3c2-c2ccccn2)ccn1)C(CC(F)(F)F)c1ccc(F)cc1 (single isomer, unassigned) [Example 121]", "category": "Not fulfilled"}
